# Subject Of Test: Delta-type opioid receptor (Homo sapiens, UniProt P41143)
# Sequence (P41143 whole entry): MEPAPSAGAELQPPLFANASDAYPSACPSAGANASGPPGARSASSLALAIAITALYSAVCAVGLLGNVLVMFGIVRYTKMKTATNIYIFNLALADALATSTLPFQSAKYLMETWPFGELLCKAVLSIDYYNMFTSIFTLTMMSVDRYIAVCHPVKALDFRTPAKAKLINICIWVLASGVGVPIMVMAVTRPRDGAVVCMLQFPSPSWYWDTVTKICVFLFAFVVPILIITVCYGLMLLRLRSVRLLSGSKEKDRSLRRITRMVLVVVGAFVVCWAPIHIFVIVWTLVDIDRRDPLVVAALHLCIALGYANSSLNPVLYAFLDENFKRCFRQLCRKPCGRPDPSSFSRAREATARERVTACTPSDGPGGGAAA
# Assay: Agonist activity at human DOR expressed in CHO cells assessed as […] in ERK1/2 phosphorylation level
# Type: functional, cell-based
Each item that follows carries a reported pEC50.
By convention, pEC50 is the negative base-10 log of a molar concentration.

| Given Smiles | Subject Of Test | pEC50 |
| --- | --- | --- |
| C=CCN1C[C@H](C)N([C@H](c2ccc(C(=O)NCC)cc2)c2cccc(OC)c2)C[C@H]1C | Delta-type opioid receptor (Homo sapiens, UniProt P41143) | 7.36 |

Shift focus to the following entry.
Delta-type opioid receptor (Homo sapiens, UniProt P41143) data for CN1CC[C@@]2(c3cccc(O)c3)Cc3nc4ccccc4cc3C[C@@H]2C1 ; its pEC50: 7.50

* * *

# Subject Of Test: Delta-type opioid receptor (Homo sapiens)
# Run Parameters: CHO, filed as modulator, time 1.0 hrs
Each item that follows carries a reported pKb.
The reply should be a number, written without any unit.

Examples with answers:
| Molecule | pKb |
| --- | --- |
| Cc1ccccc1COc1ccc(C2C3=C(CC(C)(C)CC3=O)OC3=C2C(=O)CC(C)(C)C3)cc1F | 6.01 |
| CCc1ccccc1COc1ccc(C2C3=C(CC(C)(C)CC3=O)OC3=C2C(=O)CC(C)(C)C3)cc1 | 5.5 |
| CC1(C)CC(=O)C2=C(C1)OC1=C(C(=O)CC(C)(C)C1)C2c1ccc(OCc2ccccc2C2CC2)cc1 | 5.53 |
| CC1CC(=O)C2=C(C1)OC1=C(C(=O)CC(C)C1)C2c1ccc(OCC2CCCCC2)cc1 (stereo not given) | 5.83 |
| CC1(C)CC(=O)C2=C(C1)OC1=C(C(=O)CC(C)(C)C1)C2c1ccc(OCc2ccccc2Br)cc1 | 5.9 |
| CC1(C)CC(=O)C2=C(C1)OC1=C(C(=O)CC(C)(C)C1)C2c1ccc(OCC2CCCC2)cc1 | 5.57 |

Summary for this molecule, Cc1ccccc1COc1ccc(C2C3=C(CC(C)(C)CC3=O)OC3=C2C(=O)CC(C)(C)C3)nc1 : pKb is 4.89

Summary for this molecule, C#Cc1ccccc1COc1ccc(C2C3=C(CC(C)(C)CC3=O)OC3=C2C(=O)CC(C)(C)C3)cc1 : pKb is 6.18

Summary for this molecule, CC(C)c1ccccc1COc1ccc(C2C3=C(CC(C)(C)CC3=O)OC3=C2C(=O)CC(C)(C)C3)cc1 : pKb is 6.08

Summary for this molecule, CC1(C)CC(=O)C2=C(C1)OC1=C(C(=O)CC(C)(C)C1)C2c1ccc(OCC2CCC2)cc1 : pKb is 5.72
